Kindly supply the reported Kd values for the records listed here.
# TARGET_UNDER_TEST: NLRP3 (Homo sapiens, UniProt Q96P20)
# Sequence (Q96P20 whole entry): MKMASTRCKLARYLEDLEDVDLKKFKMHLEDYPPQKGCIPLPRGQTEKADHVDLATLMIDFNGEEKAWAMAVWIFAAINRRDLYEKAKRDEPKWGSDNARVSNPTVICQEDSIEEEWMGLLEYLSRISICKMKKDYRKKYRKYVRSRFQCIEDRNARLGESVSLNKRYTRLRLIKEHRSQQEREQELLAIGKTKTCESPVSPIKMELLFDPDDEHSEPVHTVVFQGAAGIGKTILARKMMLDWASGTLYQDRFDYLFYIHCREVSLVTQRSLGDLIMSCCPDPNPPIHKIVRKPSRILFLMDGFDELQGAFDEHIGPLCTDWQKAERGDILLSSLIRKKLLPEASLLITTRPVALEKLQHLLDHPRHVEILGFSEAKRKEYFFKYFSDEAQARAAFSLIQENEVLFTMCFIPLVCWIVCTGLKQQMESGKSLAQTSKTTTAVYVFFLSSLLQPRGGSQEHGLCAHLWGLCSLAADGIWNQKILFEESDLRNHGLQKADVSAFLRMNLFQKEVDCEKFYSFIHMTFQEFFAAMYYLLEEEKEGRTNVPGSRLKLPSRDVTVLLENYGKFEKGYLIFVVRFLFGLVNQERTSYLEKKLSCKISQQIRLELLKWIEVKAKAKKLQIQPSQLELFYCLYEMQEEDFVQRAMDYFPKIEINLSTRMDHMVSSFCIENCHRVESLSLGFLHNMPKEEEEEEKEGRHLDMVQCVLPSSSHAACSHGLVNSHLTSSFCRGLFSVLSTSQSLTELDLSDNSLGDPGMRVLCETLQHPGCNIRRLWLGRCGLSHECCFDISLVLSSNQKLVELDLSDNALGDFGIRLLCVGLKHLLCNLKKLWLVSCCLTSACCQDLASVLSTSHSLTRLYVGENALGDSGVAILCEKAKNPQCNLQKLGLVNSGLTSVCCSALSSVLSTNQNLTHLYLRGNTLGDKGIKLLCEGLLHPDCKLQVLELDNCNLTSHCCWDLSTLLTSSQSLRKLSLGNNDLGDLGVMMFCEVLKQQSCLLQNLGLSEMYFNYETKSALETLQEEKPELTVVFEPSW
# PROTOCOL_DETAILS: SPR, NLRP3 immobilized on CM5 chip, […] binding model
Please respond with the number in µM and leave the unit unwritten.

Looking up "O=c1ccc2cc3ccoc3cc2o1" , I found its Kd recorded as 209

Looking up "O=c1c2ccccc2nc2n1CCc1c-2[nH]c2ccccc12" , I found its Kd recorded as 146
